Data origin: patent US20130289056A1

measurementProtocol: Phase I two-way crossover trial: effect of ritonavir on pharmacokinetics of BIBW 2992
measurementParameters: male, human, in vivo, oral, 20 mg
measuredParameter: Tmax (h)

>>> readoutvalue("CN(C)C/C=C/C(=O)Nc1cc2c(Nc3ccc(F)c(Cl)c3)ncnc2cc1O[C@H]1CCOC1.O=C(O)/C=C\\C(=O)O.O=C(O)/C=C\\C(=O)O [BIBW 2992]")
4

====

systemTested: UniProt P08183
measuredParameter: Ki

>>> readoutvalue("CN(C)C/C=C/C(=O)Nc1cc2c(Nc3ccc(F)c(Cl)c3)ncnc2cc1O[C@H]1CCOC1.O=C(O)/C=C\\C(=O)O.O=C(O)/C=C\\C(=O)O [BIBW 2992]")
"3.4 µM"

====

systemTested: P-glycoprotein (MDR1, ABCB1) (Homo sapiens)
Sequence (P08183 whole entry): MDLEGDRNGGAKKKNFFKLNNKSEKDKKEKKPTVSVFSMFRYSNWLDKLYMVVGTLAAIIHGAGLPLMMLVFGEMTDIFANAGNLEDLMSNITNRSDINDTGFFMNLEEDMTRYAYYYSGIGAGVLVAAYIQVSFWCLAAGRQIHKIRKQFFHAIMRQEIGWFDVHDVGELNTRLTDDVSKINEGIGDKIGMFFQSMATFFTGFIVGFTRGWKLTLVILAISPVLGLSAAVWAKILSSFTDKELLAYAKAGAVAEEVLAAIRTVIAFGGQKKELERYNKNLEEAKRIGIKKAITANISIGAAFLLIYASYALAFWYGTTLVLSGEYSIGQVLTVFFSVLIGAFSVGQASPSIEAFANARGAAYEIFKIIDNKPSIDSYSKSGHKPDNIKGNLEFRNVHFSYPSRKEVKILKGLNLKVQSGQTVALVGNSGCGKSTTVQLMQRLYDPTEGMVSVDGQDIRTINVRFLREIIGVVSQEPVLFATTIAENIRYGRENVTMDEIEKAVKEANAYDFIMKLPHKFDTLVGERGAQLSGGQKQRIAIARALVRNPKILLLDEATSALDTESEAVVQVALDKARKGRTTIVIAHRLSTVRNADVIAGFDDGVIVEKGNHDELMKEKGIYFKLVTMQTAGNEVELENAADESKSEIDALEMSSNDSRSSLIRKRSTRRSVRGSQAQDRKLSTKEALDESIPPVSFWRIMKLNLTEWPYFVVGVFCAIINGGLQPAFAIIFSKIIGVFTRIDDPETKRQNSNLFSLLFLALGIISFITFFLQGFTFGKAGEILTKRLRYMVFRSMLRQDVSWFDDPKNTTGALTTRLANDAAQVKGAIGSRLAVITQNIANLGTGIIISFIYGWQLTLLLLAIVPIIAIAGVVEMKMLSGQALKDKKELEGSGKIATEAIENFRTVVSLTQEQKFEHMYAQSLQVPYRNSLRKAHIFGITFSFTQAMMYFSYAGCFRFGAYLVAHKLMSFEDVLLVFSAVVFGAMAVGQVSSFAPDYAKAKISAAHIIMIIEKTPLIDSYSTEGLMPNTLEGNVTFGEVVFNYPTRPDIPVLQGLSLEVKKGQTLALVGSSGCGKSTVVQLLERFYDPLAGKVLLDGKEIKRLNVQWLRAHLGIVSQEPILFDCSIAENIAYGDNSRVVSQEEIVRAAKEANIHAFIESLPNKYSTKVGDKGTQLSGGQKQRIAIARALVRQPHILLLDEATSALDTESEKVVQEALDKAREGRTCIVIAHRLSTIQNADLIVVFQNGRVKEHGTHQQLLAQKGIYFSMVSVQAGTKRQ
measurementProtocol: P-gp transport profiling (substrate)
Type: in vitro ADME
measurementParameters: human, Caco-2 cell layers; estimated
measuredParameter: Km

>>> readoutvalue("CN(C)C/C=C/C(=O)Nc1cc2c(Nc3ccc(F)c(Cl)c3)ncnc2cc1O[C@H]1CCOC1.O=C(O)/C=C\\C(=O)O.O=C(O)/C=C\\C(=O)O")
"10 to 30 µM"
